Would you kindly list protein stability index for each of these variants?
B1: STK38L (parent)
chain: FCIDSENRIGNSGVEEIKGHPFFE

Variants of: B1
EXPERIMENT_SUMMARY: protein stability index of a GFP-peptide fusion (GPS, HEK-293T) (PSI 1-6); higher = more stable;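 also: lentivirally expressed fusions sorted by FACS into six bins by GFP to DsRed ratio, PSI derived from sequencing read proportions per bin multiplied by bin number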
CONDITIONS_USED: c terminus: a fixed tail appended
Give bare numbers.

Below: 4 variants and their reported protein stability index.
FCIDSENRIGNSGVEEIKGHYFFE [P21Y] :: 2.25
FCIDSENRGGNSGVEEIKGHPFFE [I9G] :: 2.58
FCIDSEHRIGNSGVEEIKGHPFFE [N7H] :: 1.91
FVIDSENRIGNSGVEEIKGHPFFE [C2V] :: 2.03

Look up protein stability index for the entries below, preserving their order.
1. FCIDSENRIGNSGVEEIKGHPFFM [E24M]
2. RCIDSENRIGNSGVEEIKGHPFFE [F1R]

Response:
1. 1.45
2. 5.09

Look up protein stability index for the entries below, preserving their order.
1. FEIDSENRIGNSGVEEIKGHPFFE [C2E]
2. FCIDSENRIGYSGVEEIKGHPFFE [N11Y]
3. FCIDSENRIGNSGVEEIKMHPFFE [G19M]
4. FCIDSENRIRNSGVEEIKGHPFFE [G10R]
5. FCIDSENRIGNSNVEEIKGHPFFE [G13N]

Response:
[4.7, 2.12, 1.67, 2.98, 2.73]

Look up protein stability index for the entries below, preserving their order.
1. FCIDNENRIGNSGVEEIKGHPFFE [S5N]
2. FCIDSENRIGNSGVEEIKGHPFIE [F23I]
3. FCIDSENRIGWSGVEEIKGHPFFE [N11W]

Response:
2.4
2.47
1.57

Look up protein stability index for the entries below, preserving their order.
1. FCIDSENRIENSGVEEIKGHPFFE [G10E]
2. FCIDSNNRIGNSGVEEIKGHPFFE [E6N]
3. FCIDSENRIGNSGVEEIKGHFFFE [P21F]
4. FCIDSENRIGNSGVETIKGHPFFE [E16T]
5. FCIDSENRIGNSGVEEIKGHCFFE [P21C]
6. FCIDSENEIGNSGVEEIKGHPFFE [R8E]
7. FCIDSENRIGNSGVNEIKGHPFFE [E15N]

Response:
[2.54, 1.59, 1.7, 2.35, 2.07, 3.56, 1.64]

Query: Using the record for FCIGSENRIGNSGVEEIKGHPFFE [D4G] , report its protein stability index.
Response: 2

Values were extracted from the supplement of paper PMC10567573.
